Taken from paper PMC4503722.

This section presents molecules with their documented pIC50 values.
Test system: DLD-1
Experiment: cells
Type: cell-based
Details: Homo sapiens, DLD-1, 72 h, read-out: DLD-1 viab. IC50
pIC50: −log10 of the molar value.
observable: pIC50

1. O=C(NOCC1CC1)c1ccc(F)c(F)c1Nc1ccc(I)cc1Cl [PD-184352, reference compound] : 5.66
2. Cc1nc(N)nc(N)c1-c1ccc(Cl)c(Cl)c1 [metoprine, reference compound] : 6.20
3. COCc1c(C(C)C)nc(C(C)C)c(/C=C/[C@@H](O)C[C@@H](O)CC(=O)O)c1-c1ccc(F)cc1 [cerivastatin, reference compound] : 5.60
4. COc1cc(NCc2ccc3nc(N)nc(N)c3c2C)cc(OC)c1OC [trimetrexate, reference compound] : 6.70
